// provenance: patent US4556737A

# key: entry, value: log10(LD50)
experiment: Acute toxicity test; conditions: mouse, in vivo, ip; male ddy mice, intraperitoneal, solution in physiological saline, up-down method
Recall that a logarithmic scale is used here: each number is log10 of LD50 in mg/kg.

Some solved cases for reference:
> print(dat)
                                   compound  valuemeasured
1  C[S+](C)CCOc1ccccc1OCC(O)CO.Cc1ccc(S(=O)(=O)[O-])cc1 (stereo not drawn)           2.45
2  C[S+](C)CCOc1ccc(OCC(O)COCC2CCCO2)cc1 (stereo not drawn)           2.34
3  C[S+](C)CCOc1ccc(OCC(COC(=O)c2ccccc2)OC(=O)c2ccccc2)cc1 (stereo not drawn)           1.93

I would be grateful if you could share the reported log10(LD50) for C[S+](C)CCC(=O)Nc1ccc(OCC(O)COC2CCCCC2)cc1 (stereo not drawn) .
1.97

Follow-up entry: CCCOCC(O)COc1ccc(OCC[S+](C)C)cc1 (stereo not drawn)
2.47

* * *

test: Acute toxicity test; details: mouse, in vivo, ip; male ddy mice, intraperitoneal, solution in physiological saline, up-down method
measurementKind: LD50 (mg/kg)
Give the value in mg/kg but do not write mg/kg after it.

> print(dat)
                                   compound  valuemeasured
1  CCOCCOCC(O)COc1ccc(OCC[S+](C)C)cc1 (centres unmarked)            302
2  CCOCC(COc1ccc(OCC[S+](C)C)cc1)OCC (centres unmarked)            132
3  CCCOCC(COc1ccc(NC(=O)CC[S+](C)C)cc1)OCCC (centres unmarked)           75.2
4  C[S+](C)CCOc1ccc(OCC(O)CO)cc1 (centres unmarked)            352

// moving on: another record for LD50
I would be grateful if you could share the reported LD50 for C[S+](C)CCOc1ccc(OCC(O)COC(N)=O)cc1 (centres unmarked) .
327

* * *

experiment: Acute toxicity test; details: mouse, in vivo, ip; male ddy mice, intraperitoneal, solution in physiological saline, up-down method
measurementKind: LD50 (mg/kg)
Give the value in mg/kg but do not write mg/kg after it.

Some solved cases for reference:
> print(dat)
                                   compound  measurementkind  unitofmeasure  valuemeasured
1  CC(=O)OCC(COc1ccc(NC(=O)CC[S+](C)C)cc1)OC(C)=O (stereo not shown)             LD50          mg/kg            366
2  C[S+](C)CCC(=O)Nc1ccc(OCC(O)COc2ccccc2)cc1 (stereo not shown)             LD50          mg/kg            112

I would be grateful if you could share the reported LD50 for C[S+](C)CCOc1ccc(OCC(O)COc2ccccc2)cc1.Cc1ccc(S(=O)(=O)[O-])cc1 (stereo not shown) .
150

* * *

assay: Acute toxicity test; conditions: mouse, in vivo, ip; male ddy mice, intraperitoneal, solution in physiological saline, up-down method
# label = yes (1) if LD50 < 300 mg/kg else no (0)

Could you please tell me whether LD50 recorded for CCCOCC(O)COc1ccc(NC(=O)CC[S+](C)C)cc1 (stereo not shown) [Compound 10] is less than 300 mg/kg?
yes (1)

Follow-up entry: CCOCC(COc1ccc(NC(=O)CC[S+](C)C)cc1)OCC (stereo not shown) [Compound 20]
yes (1)

Follow-up entry: COCC(O)COc1ccc(NC(=O)CC[S+](C)C)cc1.Cc1ccc(S(=O)(=O)[O-])cc1 (stereo not shown) [Compound 7]
no (0)

Follow-up entry: C[S+](C)CCC(=O)Nc1ccc(OCC(O)CO)cc1.Cc1ccc(S(=O)(=O)[O-])cc1 (stereo not shown) [Compound 4]
no (0)

Follow-up entry: CCOCC(O)COc1ccc(NC(=O)CC[S+](C)C)cc1 (stereo not shown) [Compound 8]
yes (1)

Follow-up entry: C[S+](C)CCOc1cccc(OCC(O)CO)c1 (stereo not shown) [Compound 42]
yes (1)

Follow-up entry: CCOCC(COc1ccc(NC(=O)CC[S+](C)C)cc1)OC(C)=O (stereo not shown) [Compound 25]
yes (1)

Follow-up entry: COCC(COc1ccc(NC(=O)CC[S+](C)C)cc1)OC (stereo not shown) [Compound 19]
yes (1)
